Provide the reported melting point of each item.

In: Look up melting point for this compound: COc1nc(Cl)c(C(C)C)c(OC)n1
Out: 23 to 24 °C

In: So what does the record say about melting point for CCOC(=O)CSCc1nc(NCc2ccc(OC)c(Cl)c2)c2c3c(sc2n1)CCCC3 ?
Out: 158 to 160 °C

In: I have this compound here, CC(C)(C)OC(=O)C(F)=CC1C(C(=O)OC(C#N)c2ccc(F)c(Oc3ccccc3)c2)C1(C)C (stereo not given) , and I need its recorded melting point.
Out: 122 °C

In: GET /values?readout=melting point&item= N=C(Nc1ccccc1)Nc1ncccc1OCc1c(F)cccc1Cl
Out: 147 to 149 °C

In: melting point for CC(C)(CCn1cnnc1)NCC(O)c1ccc(O)c(CO)c1 (stereo not given) ?
Out: 125 to 127 °C

In: Sample NC(=O)c1ccc(F)c2c1CC(NCCCc1c[nH]c3ccc(Cl)cc13)CO2 (stereo not given) — what was its melting point?
Out: 218 to 221 °C

In: What value of melting point has been recorded for this entry: O=C(c1sc(Nc2ccccc2)c2c1CCc1cnoc1-2)N1CCOCC1
Out: 177 to 178 °C

In: Give its melting point value. Item: Cc1ccccc1C(CCC(=O)O)Oc1cc(OCc2ccsc2)ccc1-c1ncco1 (racemic)
Out: 112 to 114 °C

In: Recorded melting point of COc1cc2[nH]c(=O)n(S(=O)(=O)c3ccc(Cl)cc3)c(=O)c2cc1OC , please.
Out: > 250 °C

In: For CCOC(=O)Cc1sc(Sc2cccc(C(F)(F)F)n2)nc1C , what is its reported melting point?
Out: 56 to 57 °C

In: Could you share which melting point value was measured for Cc1cc(C)c2c(c1C)OC(=O)C2c1ccccc1 (stereo not given) ?
Out: 129 to 130 °C

In: Quick one: melting point for COC(=O)C(C(=O)OC)c1ccc(Br)cc1 ?
Out: 77 to 79 °C

In: Any idea what its melting point is? The compound is COc1cc(C=O)ccc1OCCBr
Out: 61 to 64 °C

In: Reported melting point for CC(=O)NC1Cc2ccc(S(=O)(=O)Cl)cc2C1 (stereo not given) : what is it?
Out: 237 to 239 °C

In: # get_value(readout='melting point', item= CCOC(=O)Cc1cc(Br)c(OC(=S)N(C)C)c(Br)c1 )
Out: 93 to 95 °C

In: Given the entry COc1ccccc1CNc1ccc2cc(Nc3nc(C(F)(F)F)co3)ccc2n1 , report its measured melting point.
Out: 144 °C

In: // lookup melting point for CCOC(=O)Cn1cnc2ccccc21
Out: 63 to 64 °C

In: Recorded melting point for CN1C(=O)CC[C@]2(C)c3ccc(-c4ccc(C(F)(F)F)cc4[N+](=O)[O-])cc3CC[C@@H]12 , please?
Out: 55 to 57 °C

In: Returns the measured melting point for the input compound. Input: O=C(NCc1ncc(C(F)(F)F)cc1Cl)c1c(Cl)nc2c(c1Cl)CCCC2
Out: 48 to 50 °C

In: Can you share its melting point? I mean this compound: COc1cc2ncc(OC3CCC(OC)CC3)nc2cc1OC (stereo not given)
Out: 85 to 90 °C

In: Could you share which melting point value was measured for CC(=O)NCCOC(=O)C1CCn2c1cc(C)c2C(=O)c1ccc(Cl)n1C (stereo not given) ?
Out: 156 to 157 °C

In: Request the reported melting point associated with COc1ccc(C(=O)C2Cc3ccc(O)c(O)c3C2=O)cc1 (stereo not given)
Out: 191 to 193 °C

In: Reported melting point, compound O=C(CCl)Nc1cccc2c1C(=O)c1c(NC(=O)CCl)cccc1C2=O : ____
Out: 280 to 281 °C

In: For the compound shown here, OC1CCN(c2cc3nc(S)[nH]c3cc2F)CC1 , give the reported melting point.
Out: 268 to 269 °C

In: # input compound: O=C(c1ccccc1)N1CCC(c2nn(-c3ccccc3)c3cc(F)ccc23)CC1 ; wanted: its melting point
Out: 149 to 151 °C

In: So what's the measured melting point for this one? CCN(CC)CCCOc1ccc(C(O)(CC)c2cccc(C(F)(F)F)c2)cc1 (stereo not given)
Out: 44 to 46 °C

In: Give its melting point value. Item: COc1cc2c(cc1-c1ccccc1F)NC(=O)CC(c1cccc(-n3ccnc3C)c1)=N2
Out: 220 to 222 °C

In: // melting point lookup, key: Cc1cn(C(C)C(=O)N(C)C)nc1-c1ccccc1 (stereo not given)
Out: 87 to 89 °C

In: So what's the measured melting point for this one? O=C(NC(=O)c1ccccc1F)Nc1ccc(F)c(C(F)(F)F)c1Cl
Out: 173 °C

In: What value of melting point has been recorded for this entry: CCCc1c(O)c(C(C)=O)cc2ccc(C(=O)OC)nc12
Out: 110 to 111 °C

In: Quick one: melting point for COc1cc2c(cc1OC)CC1(CC2)NC(=O)CC(C)C1=O (stereo not given) ?
Out: 168 to 169 °C

In: Using the record for Cn1c(=O)cc(-c2nc(-c3ccccc3)cs2)c2cc(C(=O)c3ccc(Cl)cc3)ccc21 , report its melting point.
Out: 216 °C

In: Fill in: melting point of CON=C1CCC(N(C)C(=O)c2ccc3nonc3c2)CC1 (stereo not given) is ___
Out: 167 to 168 °C

In: What melting point value was documented for this compound, CC(C)c1nc(CCO)n(Cc2ccc([N+](=O)[O-])cc2)c1Sc1cc(Cl)cc(Cl)c1 ?
Out: 142 to 145 °C

In: Recorded melting point of COc1ccc(-c2[nH]nc3c2C(=O)c2c(NC(=O)NNC(=O)c4ccncc4)cccc2-3)cc1 , please.
Out: 248 °C

In: Need melting point of O=C(O)c1ccc2c(c1)Sc1ccccc1CC2O (stereo not given) , thanks.
Out: 202 to 204 °C

In: So what does the record say about melting point for C=C1OC(=NOC(C)=O)C(c2ccccc2)C(=O)N1C(C)(C)C(=O)Nc1cc(Cl)cc(Cl)c1 (stereo not given) ?
Out: 125 to 127 °C

In: Looking for the measured melting point of Nc1c(C(=O)c2cc(Cl)ccc2[N+](=O)[O-])[nH]c2cc(Cl)ccc12 , can you help?
Out: 233 to 234 °C

In: Query (compound): COc1ccc2c(c1)CC(C)(CN1CCN(c3ccccc3)CC1)NC2=O (stereo not given) ; field requested: melting point
Out: 93 to 95 °C

In: Recorded melting point of COc1ccc(-c2cnn3c(-c4cccc(NC(=O)CC(C)C)c4)ccnc23)cc1 , please.
Out: 225 to 227 °C
